Listing of entries alongside the reported Ki.
Target: UniProt:P21728
Sequence (P21728 whole entry): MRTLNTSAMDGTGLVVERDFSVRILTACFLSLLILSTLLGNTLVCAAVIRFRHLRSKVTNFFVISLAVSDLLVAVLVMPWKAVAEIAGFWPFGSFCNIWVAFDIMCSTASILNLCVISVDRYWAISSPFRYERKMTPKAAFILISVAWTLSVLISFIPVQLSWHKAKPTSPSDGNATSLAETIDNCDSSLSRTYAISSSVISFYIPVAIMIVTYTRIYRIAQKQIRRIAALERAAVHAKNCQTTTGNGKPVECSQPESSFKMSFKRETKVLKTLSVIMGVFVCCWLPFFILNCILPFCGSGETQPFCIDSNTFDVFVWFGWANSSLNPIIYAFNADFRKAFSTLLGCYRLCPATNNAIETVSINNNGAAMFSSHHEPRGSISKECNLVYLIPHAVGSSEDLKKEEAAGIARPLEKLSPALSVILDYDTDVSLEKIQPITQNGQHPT
Test: biochemical
Description: Displacement of [3H]SCH23390 from human D1R expressed in HEK293T cell membranes

Query :: Report Ki, nothing else, for this molecule: CCCN1CCCN(c2ccc(O)c3c2OCC(=O)N3)CC1
Result :: 8.8 µM

Query :: Report Ki, nothing else, for this molecule: O=C1COc2c(N3CCNCC3)ccc(O)c2N1
Result :: > 20 µM

Query :: Report Ki, nothing else, for this molecule: O=c1ccc2c(N3CCN(CCCCOc4ccn5ncc(/C=N/O)c5c4)CC3)ccc(O)c2[nH]1 (stereo in doubt; 9b)
Result :: > 20 µM

Query :: Report Ki, nothing else, for this molecule: O=c1ccc2c(N3CCNCC3)ccc(O)c2[nH]1
Result :: > 20 µM

Query :: Report Ki, nothing else, for this molecule: CCCN1CCN(c2ccc(O)c3[nH]c(=O)ccc23)CC1
Result :: > 20 µM

***
Query :: Report Ki, nothing else, for this molecule: Oc1ccc(N2CCNCC2)c2c1OCCO2
Result :: 6 µM

Query :: Report Ki, nothing else, for this molecule: CN1CCN(c2ccc(O)c3c2OCC(=O)N3)CC1
Result :: > 20 µM

Query :: Report Ki, nothing else, for this molecule: O/N=C/c1cnn2ccc(OCCCCN3CCN(c4ccc(O)c5c4OCCO5)CC3)cc12 (stereo in doubt; 9f)
Result :: > 20 µM
